Consider the following binders; for each one, report its peptide exchange yield.
- tested-on: T1, HLA-A*02:01 (human)
- T1 construct: Captured on streptavidin plates and detected with anti-b2m; also called peptide-receptive MHC molecules; MHC class I
- assay-procedure: UV-ligand exchange, anti-b2m ELISA; peptide exchange yield grade (+ >=10%, ++ >=20%, +++ >=50, ++++ >=75%)
- Text: Candidate peptides for T cell based therapies according to the present invention were further tested for their MHC binding capacity (affinity). The individual peptide-MHC complexes were produced by UV-ligand exchange, where a UV-sensitive peptide is cleaved upon UV-irradiation, and exchanged with the peptide of interest as analyzed. Only peptide candidates that can effectively bind and stabilize the peptide-receptive MHC molecules prevent dissociation of the MHC complexes. […]

Query string: Looking for the measured peptide exchange yield of `GLAFSLYQA` , can you help?
Result string: 20 to 50%

Query string: For `IAAIRGFLV` then?
Result string: 50 to 75%

Query string: For `NLMASQPQL` then?
Result string: 50 to 75%

Query string: For `VLINTSVTL` then?
Result string: 50 to 75%

Query string: For `ALVEVTEHV` then?
Result string: 20 to 50%

Query string: For `VLASGFLTV` then?
Result string: ≥ 75%

Query string: For `FVLDTSESV` then?
Result string: 50 to 75%

Query string: For `KLFGHLTSA` then?
Result string: 20 to 50%
